target: human PKCθ full length enzyme (Homo sapiens); construct: human PKCθ full length enzyme (Panvera Cat# P2996); purchased Panvera P2996; test: PKCθ IMAP assay (fluorescence polarization); type: biochemical; conditions: human PKCθ full length enzyme, IMAP; average value; read-out: IC50 PKCθ IMAP
Sequence (Q04759 whole entry): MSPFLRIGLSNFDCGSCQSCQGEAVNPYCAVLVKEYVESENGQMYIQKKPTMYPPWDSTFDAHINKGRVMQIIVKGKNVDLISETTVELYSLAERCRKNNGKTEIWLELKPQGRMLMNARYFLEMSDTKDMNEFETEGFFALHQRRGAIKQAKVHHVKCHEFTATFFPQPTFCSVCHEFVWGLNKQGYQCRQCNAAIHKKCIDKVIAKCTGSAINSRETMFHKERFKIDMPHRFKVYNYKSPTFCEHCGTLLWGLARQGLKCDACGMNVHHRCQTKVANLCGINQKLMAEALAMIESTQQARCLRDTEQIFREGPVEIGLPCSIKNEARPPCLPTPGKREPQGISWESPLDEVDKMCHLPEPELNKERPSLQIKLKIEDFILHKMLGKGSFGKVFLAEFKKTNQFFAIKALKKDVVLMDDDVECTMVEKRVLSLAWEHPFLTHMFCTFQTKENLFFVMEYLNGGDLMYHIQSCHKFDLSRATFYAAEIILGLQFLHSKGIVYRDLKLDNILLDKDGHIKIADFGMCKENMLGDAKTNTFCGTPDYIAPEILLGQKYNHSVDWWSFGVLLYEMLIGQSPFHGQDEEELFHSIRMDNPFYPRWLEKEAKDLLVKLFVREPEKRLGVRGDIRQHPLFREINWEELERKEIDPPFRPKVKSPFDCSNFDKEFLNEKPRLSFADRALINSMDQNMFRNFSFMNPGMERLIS
Criterion: IC50 strictly under 60 nM. Met: Y. Not met: N.

In: Is IC50 strictly under 60 nM for the entry Cc1c(Nc2c(C#N)cncc2-c2ccc(CN3CCCC3)cc2)ccc2[nH]ccc12 ?
Out: Y

In: Can you handle Cc1c(Nc2c(C#N)cncc2-c2ccc(Br)cc2F)ccc2[nH]ccc12 next?
Out: Y

In: Can you handle Cc1c(Nc2c(C#N)cncc2-c2ccc(OCCNCc3cccnc3)cc2)ccc2[nH]ccc12 next?
Out: Y

In: Can you handle COc1ccc(-c2cncc(C#N)c2Nc2cnc3[nH]ccc3c2Cl)cc1OC next?
Out: Y

In: Can you handle Cc1c(Nc2c(C#N)cncc2-c2cc3cc(CNCc4cccnc4)ccc3o2)ccc2[nH]ccc12 next?
Out: Y

In: Can you handle COc1ccc(-c2cncc(C#N)c2NCCC2CCNCC2)cc1OC next?
Out: N

In: Can you handle COc1cccc(Cl)c1-c1cncc(C#N)c1Nc1ccc2[nH]ccc2c1C next?
Out: N

In: Can you handle COc1ccc(-c2cncc(C#N)c2Nc2cccc3[nH]c(C)cc23)cc1OC next?
Out: N

In: Can you handle Cc1c(Nc2c(C#N)cncc2-c2ccc(OCCN3CCC(N4CCCC4)CC3)cc2)ccc2[nH]ccc12 next?
Out: Y

In: Can you handle N#Cc1cncc(-c2ccc(O)cc2)c1Nc1cccc2[nH]ccc12 next?
Out: Y

In: Can you handle Cc1c(Nc2c(C#N)cncc2-c2cc3cc(CN4CCN(c5ccccn5)CC4)ccc3o2)ccc2[nH]ccc12 next?
Out: Y

In: Can you handle N#Cc1cncc(-c2cccc(OCCNCCN3CCCC3)c2)c1Nc1ccc2[nH]ccc2c1 next?
Out: Y

In: Can you handle N#Cc1cncc(-c2cccc(-c3ccc(C(=O)NC4CC4)cc3)c2)c1Nc1ccc2[nH]ccc2c1 next?
Out: N

In: Can you handle Cc1c(Nc2c(C#N)cncc2-c2cc3cc(CNCC4CCN(C)CC4)ccc3o2)ccc2[nH]ccc12 next?
Out: Y

In: Can you handle N#Cc1cncc(-c2cccc(-c3cc[nH]c3)c2)c1Nc1ccc2[nH]ccc2c1 next?
Out: N

In: Can you handle Cc1c(Nc2c(C#N)cncc2-c2cc3cc(C=O)ccc3s2)ccc2[nH]ccc12 next?
Out: Y
